# targetDesc: T1, VEGFR-2-Fc (UniProt P35968 20-322)
# T1 construct: domain: first 3 Ig domains; conditioned supernatant of 293T cells; also called VEGFR-2-Fc fusion protein; not shown: Fc fragment of the pIg vector
# T1 sequence (P35968 20-322): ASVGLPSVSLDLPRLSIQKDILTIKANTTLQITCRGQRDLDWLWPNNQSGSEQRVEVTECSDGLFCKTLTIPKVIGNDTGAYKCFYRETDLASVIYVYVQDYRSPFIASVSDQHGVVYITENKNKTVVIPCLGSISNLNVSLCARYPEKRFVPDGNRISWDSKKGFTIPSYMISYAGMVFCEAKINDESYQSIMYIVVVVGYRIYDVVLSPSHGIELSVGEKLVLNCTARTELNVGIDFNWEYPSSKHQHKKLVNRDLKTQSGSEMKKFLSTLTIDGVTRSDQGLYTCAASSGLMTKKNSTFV
# assaySummary: receptor-Fc IP
resultType: binding result

{"binder": "74-12 (ligand) GQNHHEVVKSIDNEWRKTQCMPREVCIDVGKEFGVATNTFFKPSCVPLMRCGGCCNSEGLQCMNTSTSYLSKTLFEITVPLSQGPKPVTISFLQHNKCECRPKKD", "testResult": "binds"}
{"binder": "41-9 (ligand) AHYNTEILKFMDVYQRSYCHPREVCIDVGKEYPDEIEYIFKPSCVPLMRCGGCCNDEGLECVPTEESNITMQIMRITVPLSQGPKPVTISFLQHNKCECRPKKD", "testResult": "no binding"}
{"binder": "64-4 (ligand) GQNHHEVVKFMDVYQRSYCHPREVCIDVGKEFGVATNTFFKPSCVPLMRCGGCCNSEGLQCMNTSTSYLSKTLFEIKPHQGQHIGEMSFLQHNKCECRPKKD", "testResult": "no binding"}
{"binder": "23-4 (ligand) AHYNTEILKSIDNEWRKTQCMPREVCIDVGKEYPDEIEYIFKPPCVSVYRCGGCCNSEGLQCMNTSTSYLSKTLFEIKPHQGQHIGEMSFLQHNKCECRPKKD", "testResult": "no binding"}
{"binder": "23-15 (ligand) AHYNTEILKSIDNEWRKTQCMPREVCIDVGKEYPDEIEYIFKPPCVSVYRCGGCCNSEGLQCVPTEESNITMQIMRITVPLSQGPKPVTISFANHTSCRCMSKLD", "testResult": "no binding"}
{"binder": "63-1 (ligand) GQNHHEVVKFMDVYQRSYCHPREVCIDVGKEYPDEIEYIFKPPCVSVYRCGGCCNDEGLECVPTEESNITMQIMRIKPHQGQHIGEMSFLQHNKCECRPKKD", "testResult": "binds"}
{"binder": "21-8 (ligand) AHYNTEILKSIDNEWRKTQCMPREVCIDVGKEYPDEIEYIFKPSCVPLMRCGGCCNSEGLQCMNTSTSYLSKTLFEIKPHQGQHIGEMSFANHTSCRCMSKLD", "testResult": "no binding"}
{"binder": "54-13 (ligand) AHYNTEILKSIDNEWRKTQCMPIETLVDIFQEFGVATNTFFKPSCVPLMRCGGCCNDEGLECVPTEESNITMQIMRITVPLSQGPKPVTISFANHTSCRCMSKLD", "testResult": "no binding"}
